biological target: LasB (Pseudomonas aeruginosa (strain ATCC 15692 / DSM 22644 / CIP 104116 / JCM 14847 / LMG 12228 / 1C / PRS 101 / PAO1), UniProt P14756); assay: In vitro LasB activity assay (fluorogenic substrate); conditions: LasB 0.3 nM, substrate 150 μM, mean ± SD
Sequence (P14756 198-498): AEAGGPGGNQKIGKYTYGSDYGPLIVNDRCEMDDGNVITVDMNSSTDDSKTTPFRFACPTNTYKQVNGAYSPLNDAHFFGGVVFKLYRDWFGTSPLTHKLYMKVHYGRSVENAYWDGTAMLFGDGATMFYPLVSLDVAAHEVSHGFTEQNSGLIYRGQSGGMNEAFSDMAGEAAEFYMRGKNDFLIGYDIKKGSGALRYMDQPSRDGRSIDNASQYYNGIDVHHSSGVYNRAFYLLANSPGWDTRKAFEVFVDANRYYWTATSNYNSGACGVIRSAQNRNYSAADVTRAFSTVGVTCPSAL
Property: pIC50
Please treat pIC50 as minus the base-10 logarithm of the molar concentration.

Entry CC(C)CC(C(=O)NO)C(=O)Nc1ccc(Cn2cc(CNS(=O)(=O)CC(C)C)nn2)cc1 (centres unmarked) [Compound 169] ; pIC50 = 8.28

Entry CC(C)CC(C(=O)NO)C(=O)Nc1ccc(Cn2cc(CN(C)S(=O)(=O)c3ccc(I)cc3)nn2)cc1 (centres unmarked) [Compound 131] ; pIC50 = 8.64

Entry CC(C)CC(C(=O)NO)C(=O)Nc1ccc(Cn2cc(Cc3ccc(Cl)cc3)nn2)cc1 (centres unmarked) [Compound 137] ; pIC50 = 7.77

Entry CC(C(=O)NO)C(=O)Nc1ccc(Cn2cc(CNS(=O)(=O)c3ccc(I)cc3)nn2)cc1 (centres unmarked) [Compound 217] ; pIC50 = 6.56

Entry CC(C)CC(C(=O)NO)C(=O)Nc1ccc(Cn2cc(CNS(=O)(=O)c3ccc(I)cc3)nn2)cc1 (centres unmarked) [Hit L1] ; pIC50 = 8.62
